Attribution: patent US20130078237A1

Target: T1, Histidine-tagged human soluble CD27L (human, UniProt P32970 39-193)
T1 construct: also called Hu CD27L-his; soluble human CD27L-his; not shown: histidine tag
T1 sequence: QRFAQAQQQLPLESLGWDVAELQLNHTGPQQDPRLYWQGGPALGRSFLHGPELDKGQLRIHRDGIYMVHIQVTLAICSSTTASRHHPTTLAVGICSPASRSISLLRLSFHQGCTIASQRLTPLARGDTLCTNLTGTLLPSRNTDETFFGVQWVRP
Experiment: BIACORE 3000, antibody captured by goat anti-human IgG on a CM5 chip, Hu CD27L-his as analyte (column 'Affinity Hu Biacore KD nM')
METRIC: Kd (nM)
Report only the number, with the unit nM understood.

The binder identified as Ab6 (antibody, human IgG1, lambda, V domains shown, Fully human IgG1 from XenoMouse hybridoma) VH: QVQLVQSGAEVKKPGASVKVSCKASGYTFTSYGISWVRQAPGQGLEWMGWISAYNGYTHYAQKLQGRVTMTTDTSTSTAYMELRSLRSDDTAVYYCARDYGGNDYYGMDVWGQGTTVTVSS VL: QSVLTQPPSASGTPGQRVTISCSGSSSNIGINYVYWYQQLPGTAPKLLIYRSDQRPSGVPDRFSGSKSGTSASLALSGLRSEDEADYYCAAWDDSLSGVVFGGGTKLTVLG registered its Kd at 6.06

Kindly note the recorded Kd for Ab8 (antibody, human IgG1, kappa, V domains shown, also called A8; unconjugated Ab8) VH: QVQLVESGGGVVQPGRSLRLSCAASGFTFSSYGMHWVRQAPGKGLEWVAVIWYDGSDKYFADSVKGRFTISRDNSKNTLYLQMNSLRAEDTAVYYCARDGIAGARYVYFDYWGQGTLVTVSS VL: DIQMTQSPSSLSASVGDRVTITCRASQGISNYLAWFQQKPGKAPKSLIYAASSLQGGVPSKFSGSGSGTDFTLTISSLQPEDFATYYCQQYYNYPFTFGPGTTVDIKR , which is 10.8

The binder listed as Ab2 (antibody, human IgG1, kappa, V domains shown, Fully human IgG1 from XenoMouse hybridoma) VH: QVQLQESGPGLVKPSQTLSLTCTVSGDSIISGGYYWSWIRQHPGKGLEWIGYIFYSGSTDYNPSLKSRVTISVDTSKNQFSLKLSSVTAADTAVYYCARSGYSYALFDHWGQGTLVTVSS VL: DIQMTQSPSSLSASVGDRVTISCRASQFIGRYFNWYQQQPGKAPKVLIYAESSLQSGVPSRFSGSGSGTEFTLTISSLQPEDFARYYCQQSYSTPWTFGQGTKVEIKR has a reported Kd of 0.59

Sample Ab1 (antibody, human IgG1, kappa, V domains shown, Fully human IgG1 from XenoMouse hybridoma) VH: QMQLQESGPGLVKPSQTLSLTCTVSDGSIISGVYYWSWIRQHPGKGLEWIGYIYYSGSTSYNPSLKSRLTMSVDTSKNQFSLKLSSVTAADTAVYYCARSGYSYALFDYWGQGTLVTVSS VL: DIQMTQSPSSLSASLGDRVTITCRASQSVDRYFNWYQQKPGKAPKVLIFAASSLQSGVPSRFGGSGSGTDFTLTISSLQPEDFATYYCQQSYSTPWTFGQGTKVEVKR ; Kd observed: 0.62

Kd reading for Ab7 (antibody, human IgG1, lambda, V domains shown, Fully human IgG1 from XenoMouse hybridoma) VH: QVQLVESGGGVVQPGRSLRLSCAASGFTFSTYGMHWVRQAPGKGLEWVAVIWYDGSNKYYGDSVKGRFTISRDNSKNTLYLQMNSLRAEDTAVYYCARDNSHYYYGMDVWGQGTTVTVSS VL: QSVLTQPPSVSGAPGQRVTISCTGSSSNIGAGYDVNWYQQFPGTAPKLLIYVNNNRPSGVPDRFSGSTSGTSASLAITGLQAEDEADYYCQSYDTSLSASVFGGGTRLTVLG : 0.71
